Could you please report measured pIC50 for the items listed next?
pIC50 is a log-scale quantity: -log10 of the concentration expressed in molar.

Enquiry: Lookup: pIC50 / Proteinase-activated receptor 1 (Homo sapiens, UniProt P25116) / "CC(=O)N(C(=O)/C=C/c1ccc(-c2ccccc2)cc1)[C@@H](Cc1ccc(F)cc1)C(=O)N[C@@H](Cc1ccc(NC(=N)N)cc1)C(=O)N[C@@H](CC(C)C)C(=O)N[C@@H](CCCN=C(N)N)C(N)=O"
Return: 5.82

Enquiry: Test system Proteinase-activated receptor 1 (Homo sapiens, UniProt P25116); read-out pIC50; what value for "CC(=O)N(C(=O)/C=C/c1ccccc1)[C@@H](Cc1ccc(F)cc1)C(=O)N[C@@H](Cc1ccc(Cl)cc1)C(=O)N[C@@H](CC(C)C)C(=O)N[C@@H](CCCN=C(N)N)C(N)=O" ?
Return: 5.33

Enquiry: Look up pIC50 with Proteinase-activated receptor 1 (Homo sapiens, UniProt P25116) for this molecule: CC(=O)N(C(=O)/C=C/c1ccc(C)cc1)[C@@H](Cc1ccc(F)cc1)C(=O)N[C@@H](Cc1ccc(NC(=N)N)cc1)C(=O)N[C@@H](CC(C)C)C(=O)N[C@@H](CCCN=C(N)N)C(N)=O (stereo in doubt; 63)
Sequence (P25116 whole entry): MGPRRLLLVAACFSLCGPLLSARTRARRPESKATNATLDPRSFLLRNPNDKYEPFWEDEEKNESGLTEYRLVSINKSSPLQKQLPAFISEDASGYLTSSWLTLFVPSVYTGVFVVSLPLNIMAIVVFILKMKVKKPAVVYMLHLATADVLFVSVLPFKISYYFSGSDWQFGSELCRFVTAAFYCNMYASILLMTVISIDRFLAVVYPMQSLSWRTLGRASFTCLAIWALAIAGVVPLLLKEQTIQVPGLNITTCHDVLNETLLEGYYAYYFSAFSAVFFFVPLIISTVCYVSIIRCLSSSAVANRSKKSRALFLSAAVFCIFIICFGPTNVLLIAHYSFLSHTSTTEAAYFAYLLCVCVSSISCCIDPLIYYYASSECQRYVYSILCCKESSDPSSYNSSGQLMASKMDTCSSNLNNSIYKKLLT
Return: 7.37
